Each recorded value in this set is attributed to patent US20150045310A1.

Listed below: pKd values for each entry.
measuredTarget: T1, Mcl-1 (biotinylated pro-survival Bcl-2 family protein) (UniProt Q07820 171-327, biotinylated (co-expressed E. coli biotin ligase BirA))
T1 chain: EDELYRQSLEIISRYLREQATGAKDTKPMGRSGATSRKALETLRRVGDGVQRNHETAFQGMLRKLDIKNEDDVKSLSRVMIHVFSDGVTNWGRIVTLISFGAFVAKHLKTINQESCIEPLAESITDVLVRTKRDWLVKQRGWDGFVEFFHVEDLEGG
measurementProtocol: cell surface display FACS titration; apparent Kd
pKd: −log10 of the molar value.
assayEndpoint: pKd

binder="WIAQTLRRIGDEFN [Bim BH3 14-mer E151T displayed on eCPX]" assayendpoint=pKd recordedmeasurement=7.48
binder="WIAQLLRRIGDEFN [Bim BH3 14-mer E151L displayed on eCPX]" assayendpoint=pKd recordedmeasurement=7.75
